Each record here notes measured pKd.
Biological target: T1, PUF4 RNA-binding domain (Saccharomyces cerevisiae, UniProt P25339 537-888)
T1 sequence: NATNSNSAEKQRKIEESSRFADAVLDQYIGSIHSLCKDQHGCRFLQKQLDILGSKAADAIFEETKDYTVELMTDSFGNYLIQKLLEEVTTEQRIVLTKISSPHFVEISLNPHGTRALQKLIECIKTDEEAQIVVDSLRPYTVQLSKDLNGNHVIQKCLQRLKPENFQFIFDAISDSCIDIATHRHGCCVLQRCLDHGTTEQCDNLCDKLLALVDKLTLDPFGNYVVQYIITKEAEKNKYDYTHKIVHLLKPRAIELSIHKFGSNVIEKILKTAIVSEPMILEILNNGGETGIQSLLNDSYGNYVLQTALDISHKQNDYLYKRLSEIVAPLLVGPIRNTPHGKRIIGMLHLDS
Test: Mg; RNA-MaP; 20 mM Na-HEPES pH 7.4, 30 mM KOAc, 0.75 mM MgCl2, 0.1% Tween-20, 5% glycerol, 0.1 mg/mL BSA, 2 mM DTT; 25 C; 0.0125-409.6 nM protein
Details: tags: N-His6-TEV cleaved; C-SNAP kept, Cy3B-labelled; label: tethered on chip by stalled RNA polymerase
pKd (log units): -log10 of the concentration in mol/L.

Examples with their reported pKd follow.
# binder, pKd
records = [
    ("Id_ii_S2_P5E.4_K5.3_C5.2_[C-2G]_[T-1C]_H5.3_A5.1_F5.1_T5.2_[T11A]_[A12T] (ssRNA) RNA: UUUGAUUAAUAUGAUAUCGUUCUUUCUGCACACUUAUUAAUUUCUUUCUCGAUAUCAUAUUAAUCUUU", 6.39),
    ("Id_ii_S2_P3E.2_K3.1_C3.2_[T-1G]_H3.1_A3.1_F3.1_T3.2_[T9G]_[A10G] (ssRNA) RNA: UUUGAUUAAUAUGAUAUCGUUCUUUCUCGUGUAUAUAGGUUCUUUCUCGAUAUCAUAUUAAUCUUU", 7.99),
    ("UCUCUUUGUACUAUCAUCUCUU (ssRNA) [Ic_S1_P5E.1_K5.1_C5.1_H5.1_A5.1_[T5C]_F5.1_[T9C]_T5.1]", 7.75),
    ("UCUCUUUGUACAUUUUCUCUU (ssRNA) [Ic_S1_P4E.1_K4.1_C4.1_H4.1_A4.1_[T5C]_F4.1_[A9T]_T4.1]", 8.28),
]

Q: Param item = UCUCUUCUUGUAUUAUUAUUUCUCUU (ssRNA) [Id_ii_S1_P5E.2_K5.1_C5.2_H5.1_A5.1_F5.1_T5.2_[A12T]] ; retrieve measured pKd.
A: 8.39

Q: Please look up its pKd: UCUCUUCAUAUAUUAUUAUUUCUCUU (ssRNA) [Id_ii_S1_P5E.3_K5.2_C5.2_[T-1A]_H5.2_A5.1_F5.1_T5.2_[A12T]]
A: 6.40

Q: Entry UCUCUUUGUAUCUAUAUCUCUU (ssRNA) [Ic_S1_P5E.1_K5.1_C5.1_H5.1_A5.1_[T6C]_[A7T]_F5.1_[T8A]_T5.1] has what pKd?
A: 7.94

Q: Would you mind telling me what pKd value was observed for Ib_S2_P5E.1_K5.1_C5.1_H5.1_[A4T]_A5.1_[T5G]_F5.1_T5.1 (ssRNA) RNA: UUUGAUUAAUAUGAUAUCGUUCUUUCUUGUUGUAUUAUUCUUUCUCGAUAUCAUAUUAAUCUUU ?
A: 8.18

Q: Which pKd is listed for Id_ii_S2_P3E.3_K3.2_C3.2_[T-1G]_H3.2_A3.1_F3.1_T3.2_[T9A]_[A10G] (ssRNA) RNA: UUUGAUUAAUAUGAUAUCGUUCUUUCUCGUAUAUAUAAGUUCUUUCUCGAUAUCAUAUUAAUCUUU ?
A: 6.24

Q: For UCUCUUAUACACUUAUUACCUCUCUU (ssRNA) [Id_ii_S1_P5E.4_K5.3_C5.2_[C-2A]_H5.3_A5.1_F5.1_T5.2_[T11C]_[A12C]] , what is its reported pKd?
A: 6.22

Q: Can you share its pKd? I mean this binder: UCUCUUUGUACCUGGCUCUCUU (ssRNA) [Ic_S1_P5E.1_K5.1_C5.1_H5.1_A5.1_[T5C]_[T6C]_[A7T]_F5.1_[T8G]_[T9G]_[A10C]_T5.1]
A: 6.31
